Target: EGFR wild type (EGFR WT) (Homo sapiens (Human))
Sequence (P00533 25-1210): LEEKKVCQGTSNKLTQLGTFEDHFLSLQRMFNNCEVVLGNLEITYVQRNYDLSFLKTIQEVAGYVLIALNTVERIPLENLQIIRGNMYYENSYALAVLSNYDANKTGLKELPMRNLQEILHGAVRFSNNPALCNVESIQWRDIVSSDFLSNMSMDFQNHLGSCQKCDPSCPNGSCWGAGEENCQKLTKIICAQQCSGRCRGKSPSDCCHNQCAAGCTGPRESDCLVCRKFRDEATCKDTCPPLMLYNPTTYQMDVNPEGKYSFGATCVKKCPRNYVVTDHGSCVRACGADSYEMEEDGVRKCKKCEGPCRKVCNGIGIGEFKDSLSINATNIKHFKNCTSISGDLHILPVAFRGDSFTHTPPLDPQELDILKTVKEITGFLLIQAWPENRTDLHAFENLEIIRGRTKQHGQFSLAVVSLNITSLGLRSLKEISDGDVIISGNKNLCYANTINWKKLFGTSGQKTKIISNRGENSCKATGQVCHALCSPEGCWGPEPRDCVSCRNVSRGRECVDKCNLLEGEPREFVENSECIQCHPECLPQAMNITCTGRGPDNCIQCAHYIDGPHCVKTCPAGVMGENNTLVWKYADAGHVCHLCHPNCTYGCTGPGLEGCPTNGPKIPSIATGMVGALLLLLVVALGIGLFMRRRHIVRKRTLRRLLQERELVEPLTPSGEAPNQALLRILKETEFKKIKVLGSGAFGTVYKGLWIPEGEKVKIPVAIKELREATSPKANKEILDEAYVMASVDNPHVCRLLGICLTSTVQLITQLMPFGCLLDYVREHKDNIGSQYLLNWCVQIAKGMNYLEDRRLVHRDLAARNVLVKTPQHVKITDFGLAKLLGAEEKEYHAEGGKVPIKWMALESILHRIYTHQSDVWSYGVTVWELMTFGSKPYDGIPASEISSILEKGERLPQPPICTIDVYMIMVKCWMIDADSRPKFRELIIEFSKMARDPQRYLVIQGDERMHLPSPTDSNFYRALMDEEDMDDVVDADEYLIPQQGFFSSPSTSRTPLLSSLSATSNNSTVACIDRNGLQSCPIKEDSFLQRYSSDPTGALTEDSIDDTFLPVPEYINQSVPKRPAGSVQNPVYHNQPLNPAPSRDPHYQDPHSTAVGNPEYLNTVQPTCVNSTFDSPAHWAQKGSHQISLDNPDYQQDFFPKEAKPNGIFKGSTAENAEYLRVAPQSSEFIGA
Test: Cellular Phosphorylation Assay, Assay 5 (EGF-stimulated EGFR phosphorylation, NIH 3T3 cells)
Type: cell-based
Settings: cellular EGFR WT phosphorylation, EGF-stimulated
Reported IC50 is given for each of the following compounds.

Examples with their reported IC50 follow.
* C=CC(=O)N1CCN(c2ccc3ncnc(Nc4ccc(Oc5ccc6c(c5)ncn6C)c(C)c4F)c3n2)C[C@H]1C(C)C | ≥ 5 µM
* C=CC(=O)N1CC2(CCN(c3ccc4ncnc(Nc5ccc(Oc6ccn7ncnc7c6)c(C)c5F)c4n3)C2)C1 | ≥ 5 µM

Now for a further compound.
Problem: May I ask what IC50 has been recorded for "C=C(C)C(=O)N1CCN(c2ccc3ncnc(Nc4ccc(Oc5ccn6ncnc6c5)c(C)c4F)c3n2)CC1" ?
Result: ≥ 5 µM

----------
Target: ErbB2 WT (Homo sapiens (Human))
Sequence (P04626 23-1255): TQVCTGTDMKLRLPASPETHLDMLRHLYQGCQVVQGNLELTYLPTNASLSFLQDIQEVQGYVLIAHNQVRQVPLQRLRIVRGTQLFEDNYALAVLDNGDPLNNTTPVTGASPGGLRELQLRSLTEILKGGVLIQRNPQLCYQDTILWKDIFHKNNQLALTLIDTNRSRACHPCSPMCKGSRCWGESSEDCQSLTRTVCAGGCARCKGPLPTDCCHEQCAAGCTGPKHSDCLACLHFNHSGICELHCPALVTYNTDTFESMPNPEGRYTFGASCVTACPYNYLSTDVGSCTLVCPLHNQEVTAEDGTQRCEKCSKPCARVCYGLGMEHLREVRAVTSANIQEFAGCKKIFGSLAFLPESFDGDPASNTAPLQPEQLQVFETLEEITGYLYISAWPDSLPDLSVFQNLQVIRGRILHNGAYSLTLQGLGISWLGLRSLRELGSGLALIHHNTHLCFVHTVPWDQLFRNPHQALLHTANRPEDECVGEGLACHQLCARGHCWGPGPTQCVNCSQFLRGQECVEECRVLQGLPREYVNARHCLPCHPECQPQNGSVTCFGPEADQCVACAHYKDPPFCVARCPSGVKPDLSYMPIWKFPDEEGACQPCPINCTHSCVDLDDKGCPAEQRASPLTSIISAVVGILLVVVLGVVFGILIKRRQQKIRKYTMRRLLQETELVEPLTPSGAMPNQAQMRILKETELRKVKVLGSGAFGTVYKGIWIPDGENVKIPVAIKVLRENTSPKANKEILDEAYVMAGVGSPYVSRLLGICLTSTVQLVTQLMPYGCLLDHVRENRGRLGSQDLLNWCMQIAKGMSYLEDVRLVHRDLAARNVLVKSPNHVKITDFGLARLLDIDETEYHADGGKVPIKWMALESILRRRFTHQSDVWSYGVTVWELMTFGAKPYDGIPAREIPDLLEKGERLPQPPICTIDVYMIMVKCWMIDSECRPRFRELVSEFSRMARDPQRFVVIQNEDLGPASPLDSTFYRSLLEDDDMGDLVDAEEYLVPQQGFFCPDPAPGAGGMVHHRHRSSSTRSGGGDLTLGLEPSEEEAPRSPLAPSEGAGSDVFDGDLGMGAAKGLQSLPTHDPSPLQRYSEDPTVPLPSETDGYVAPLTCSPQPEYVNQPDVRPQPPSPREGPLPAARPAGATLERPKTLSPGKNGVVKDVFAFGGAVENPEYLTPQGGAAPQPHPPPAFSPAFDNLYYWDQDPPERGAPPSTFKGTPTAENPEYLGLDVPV
Assay: ErbB Enzyme Assay (HTRF KinEASE-TK), Assay 2
Format: biochemical
Conditions: ErbB2 WT enzyme assay
pIC50: −log10 of the molar value.
measurement label: pIC50

Recorded pIC50, per entry:
- C=CC(=O)N1CCN(c2ccc3ncnc(Nc4ccc(Oc5ccn6ncnc6c5)c(C)c4F)c3n2)CC12CCC2: 7.81
- C=CC(=O)N1CCN(c2ccc3ncnc(Nc4ccc(Oc5ccc6scnc6c5)c(C)c4)c3n2)CC1(C)C: 7.43
- C=C(C)C(=O)N1CCN(c2ccc3ncnc(Nc4ccc(Oc5ccn6ncnc6c5)c(C)c4F)c3n2)CC1: 6.90
- C=CC(=O)N1CCN(c2ccc3ncnc(Nc4ccc(Oc5cc(F)c6c(c5)ncn6C)c(C)c4)c3n2)C[C@H]1CC: 7.89

a: C=CC(=O)N1C[C@@H]2C[C@H]1CC[C@@H]2c1ccc2ncnc(Nc3ccc(Oc4ccn5ncnc5c4)c(C)c3F)c2n1
b: C=CC(=O)N1CC[C@H](c2ccc3ncnc(Nc4ccc(Oc5cnc6c(c5)ncn6C)c(Cl)c4)c3n2)CC1(C)C (racemic)
Problem: Lower value of pIC50 belongs to which: a or b ? Refer to your chosen entry by its label in the reply.
Result: b

a: C=CC(=O)N1CC[C@H]2C[C@@H]1CN2c1ccc2ncnc(Nc3ccc(Oc4ccn5ncnc5c4)c(Cl)c3F)c2n1
b: C=CC(=O)N1CCN(c2ccc3ncnc(Nc4cc(Cl)c(Oc5cnc6c(c5)ncn6C)cc4F)c3n2)C[C@@H]1C1CC1
c: C=CC(=O)N1CCCCC(c2ccc3ncnc(Nc4ccc(Oc5ccn6ncnc6c5)c(C)c4F)c3n2)C1 (stereo not shown)
Problem: Exam item: list the entries in increasing order of pIC50. List the labels in the requested order.
Result: b, a, c
(b: 6.72, a: 7.44, c: 7.89)

I: C=CC(=O)N1C[C@@H]2CC[C@H]1CN2c1ccc2ncnc(Nc3cc(C)c(Oc4cnc5c(c4)ncn5C)cc3F)c2n1
II: C=CC(=O)N1CCN(c2ccc3ncnc(Nc4ccc(Oc5cnc6c(c5)ncn6C)c(C)c4F)c3n2)C[C@@H]1C(F)F (racemic)
Problem: Could you determine which record has the numerically smaller pIC50? Candidates: I and II // output: label of the selected item
Result: I
(I: 7.29, II: 7.95)

a: C=CC(=O)N1CCC12CN(c1ccc3ncnc(Nc4cc(C)c(Oc5ccn6ncnc6c5)cc4F)c3n1)C2
b: C=CC(=O)N1C[C@H]2C[C@@H]1CN(c1ccc3ncnc(Nc4cc(Cl)c(Oc5ccn6ncnc6c5)cc4F)c3n1)C2
c: C=CC(=O)N1CCN(c2ccc3ncnc(Nc4ccc(Oc5ccn6ncnc6c5)c(Cl)c4F)c3n2)C[C@@H]1C1CC1
Problem: Reorder the items by pIC50, least to greatest. Answer format: the labels, in the requested order.
Result: b, a, c
(b: 7.12, a: 7.47, c: 7.91)
